# Protocol Description: Pharmacokinetics after 3 mg/kg IV administration, plasma
# Format: in vivo, CD1 mice
# Protocol Conditions: CD1, mouse, plasma, intravenous, 3 mg/kg, 4 h, individual mice, read-out: Plasma concentration
Experimental Endpoint: concentration at 4 h (ng/mL)
// note: answer is a bare numeric in ng/mL

Given COc1cc2c(cc1OCCCCCCC(=O)O)C[C@@H](C(C)C)n1cc(C(=O)O)c(=O)cc1-2 , state its recorded concentration at 4 h.
1.85

====

# Protocol Description: Liver distribution after 8 mg/kg oral dose (liver vs plasma)
# Assay type: in vivo, CD1 mice
# Protocol Conditions: CD1, mouse, liver/plasma, oral, 8 mg/kg, 2 h, individual animals, read-out: Ratio (liver/plasma)
Experimental Endpoint: Kp at 2 h
Quick one: just the number, no unit, thanks!

Given COc1cc2c(cc1OCCCCCCC(=O)O)C[C@@H](C(C)C)n1cc(C(=O)O)c(=O)cc1-2 , state its recorded Kp at 2 h.
69.6

====

# Protocol Description: Liver distribution after 8 mg/kg oral dose (liver vs plasma)
# Type: in vivo, CD1 mice
# Protocol Conditions: CD1, mouse, liver/plasma, oral, 8 mg/kg, 8 h, mean, read-out: Ratio (liver/plasma) Mean
Experimental Endpoint: Kp at 8 h
Quick one: just the number, no unit, thanks!

Given COc1cc2c(cc1OCCCCCCC(=O)O)C[C@@H](C(C)C)n1cc(C(=O)O)c(=O)cc1-2 , state its recorded Kp at 8 h.
16.8

====

# Protocol Description: Pharmacokinetics after 8 mg/kg oral (PO) administration, plasma
# Format: in vivo, CD1 mice
# Protocol Conditions: CD1, mouse, plasma, oral, 8 mg/kg, 8 mg/kg oral, 0.5 h, individual animals; read-out: Plasma concentration
Experimental Endpoint: concentration at 0.5 h (ng/mL)
// note: answer is a bare numeric in ng/mL

Given COc1cc2c(cc1OCCCCCCC(=O)O)C[C@@H](C(C)C)n1cc(C(=O)O)c(=O)cc1-2 [Example 6] , state its recorded concentration at 0.5 h.
9.4

====

# Protocol Description: Liver distribution after 8 mg/kg oral dose (liver vs plasma)
# Type: in vivo, CD1 mice
# Protocol Conditions: CD1, mouse, liver/plasma, oral, 8 mg/kg, 6 h, mean, read-out: Ratio (liver/plasma) Mean
# Description: Protocol for pharmacokinetic and tissue distribution studies. The pharmacokinetics of the compounds was studied in CD1 mice after intravenous (IV) and oral gavage (PO) administration. Mouse PK studies was conducted at 3 mg/kg (IV) and 8 mg/kg (PO). […] Pharmacokinetic parameters will be calculated using established non-compartmental methods. […]
Experimental Endpoint: Kp at 6 h
Quick one: just the number, no unit, thanks!

Given COc1cc2c(cc1OCCCCCCC(=O)O)C[C@@H](C(C)C)n1cc(C(=O)O)c(=O)cc1-2 , state its recorded Kp at 6 h.
32.3

====

# Protocol Description: Pharmacokinetics after 8 mg/kg oral (PO) administration, plasma
# Format: in vivo, CD1 mice
# Protocol Conditions: CD1, mouse, plasma, oral, 8 mg/kg, 8 mg/kg oral, 8 h, mean
Experimental Endpoint: concentration at 8 h (ng/mL)
// note: answer is a bare numeric in ng/mL

Given COc1cc2c(cc1OCCCCCCC(=O)O)C[C@@H](C(C)C)n1cc(C(=O)O)c(=O)cc1-2 , state its recorded concentration at 8 h.
4.38
